# EXPERIMENT: Preliminary oral toxicity testing in mice
# Type: in vivo
# CONDITION INFO: in vivo, survival, one mouse per dosage, read-out: HTD (highest tolerated dose)
EXPERIMENTAL READOUT: MTD (mg/kg)

| MOLECULE | EXPERIMENTAL READOUT | UNIT TEXT | NUMERIC READOUT |
| --- | --- | --- | --- |
| CC1=NCCn2c1ccc2-c1ccc(Cl)cc1.O=C(O)/C=C/C(=O)O | MTD | mg/kg | 312 |
| CC1=NCCn2c1cc1c2-c2ccc(OC3CCCC3)cc2CC1.O=C(O)/C=C/C(=O)O | MTD | mg/kg | 250 |
| CC1NCCn2c1cc1c2-c2ccc(Cl)cc2CC1.O=C(O)/C=C/C(=O)O (centres unmarked) | MTD | mg/kg | 500 |
| CC1=NCCn2c1cc1c2-c2ccc(Cl)cc2CC1.O=C(O)/C=C/C(=O)O | MTD | mg/kg | 125 |
| CC1=NCCn2c1ccc2-c1ccccc1.O=C(O)/C=C/C(=O)O | MTD | mg/kg | 312 |
| CC1=NCCn2c1cc1c2-c2ccccc2CC1 | MTD | mg/kg | 156 |
| CC1NCCn2c1cc1c2-c2ccccc2CC1.O=C(O)/C=C/C(=O)O (centres unmarked) | MTD | mg/kg | 312 |
| CC1=NCCn2c1ccc2-c1ccc(OC2CCCC2)cc1.O=C(O)/C=C/C(=O)O | MTD | mg/kg | 312 |

----------
# EXPERIMENT: Preliminary oral toxicity testing in mice
# Assay type: in vivo
# CONDITION INFO: death within 24 hrs., one mouse per dosage

| COMPOUND | LLD (lowest lethal dose) |
| --- | --- |
| CC1=NCCn2c1ccc2-c1ccc(OC2CCCC2)cc1.O=C(O)/C=C/C(=O)O | 625 miligram per kilogram body wei |
| CC1=NCCn2c1cc1c2-c2ccccc2CC1 | 312 miligram per kilogram body wei |
| CC1=NCCn2c1cc1c2-c2ccc(Cl)cc2CC1.O=C(O)/C=C/C(=O)O | 250 miligram per kilogram body wei |
| CC1=NCCn2c1cc1c2-c2ccc(OC3CCCC3)cc2CC1.O=C(O)/C=C/C(=O)O | 500 miligram per kilogram body wei |
| CC1NCCn2c1cc1c2-c2ccc(Cl)cc2CC1.O=C(O)/C=C/C(=O)O (centres unmarked) | 1000 miligram per kilogram body wei |
| CC1=NCCn2c1ccc2-c1ccccc1.O=C(O)/C=C/C(=O)O | 625 miligram per kilogram body wei |
| CC1NCCn2c1cc1c2-c2ccccc2CC1.O=C(O)/C=C/C(=O)O (centres unmarked) | 625 miligram per kilogram body wei |
| CC1=NCCn2c1ccc2-c1ccc(Cl)cc1.O=C(O)/C=C/C(=O)O | 625 miligram per kilogram body wei |

----------
Each entry below carries its reported MAO inhibition, Liver, 5HT.
# Tested on: MAO in the liver (substrate 5-HT)
# EXPERIMENT: MAO inhibition ex vivo in liver of rats, substrate 5-HT
# Set-up: species or system male albino rats (Fu-SPF)
# CONDITION INFO: rat, 100 μmol/kg orally, 2 hrs., given in percentage of the control values

| MOLECULE | MAO inhibition, Liver, 5HT |
| --- | --- |
| CC1NCCn2c1cc1c2-c2ccccc2CC1 (stereo not drawn) | 55% |
| CC1=NCCn2c1ccc2-c1ccc(OC2CCCC2)cc1 | 38% |
| CC1=NCCn2c1ccc2-c1ccc(O[C@@H]2C[C@H]3CC[C@@H]2C3)cc1 (relative stereo) | 51% |
| CC1=NCCn2c1cc1c2-c2ccc(OC3CCCC3)cc2CC1 | 8% |
| CC1=NCCn2c1cc1c2-c2ccc(C)cc2CC1 | 17% |
| CC1=NCCn2c1cc1c2-c2ccccc2CC1 | 47% |
